study.target: T1, native soluble IL-6R in human plasma (human), P08887
T1 chain: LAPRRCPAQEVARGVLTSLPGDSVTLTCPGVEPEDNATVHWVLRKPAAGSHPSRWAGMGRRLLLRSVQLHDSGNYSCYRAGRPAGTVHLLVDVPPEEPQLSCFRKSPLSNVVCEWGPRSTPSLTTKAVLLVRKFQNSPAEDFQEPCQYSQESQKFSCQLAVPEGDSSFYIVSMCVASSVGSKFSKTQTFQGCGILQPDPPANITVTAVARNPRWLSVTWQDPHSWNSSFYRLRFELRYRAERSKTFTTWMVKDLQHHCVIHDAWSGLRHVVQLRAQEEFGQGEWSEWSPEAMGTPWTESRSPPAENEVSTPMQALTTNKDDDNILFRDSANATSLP
protocol.notes: ELISA 1, periplasmic extract; competitor IL-6; human plasma
experimental.context: remark: other sources report otherwise
measured.property: OD450 ratio sample/blank

Look over these answered cases.
IL6RPMP108E9 (VHH) VHH: EVQLVESGGGLVQAGGSLRLSCAFSRRSFGNFPMGWFRQRPGEEREYVAVISWNNNYIHYRDSVKGRFTASRDTSENRMYLQMNGLKPEDTAVYYCAARTKDNTLFTPAEEYDYWGQGTQVTVSS: 0.731
IL6RPMP103F2 (VHH) VHH: EVQLVESGGGLVQAGGSLRLSCVASGHTSDTYIMAWFRQAPGKEREFVASILWDGSITYYADSVKDRFTISRDISRKTLYLQMNSLRPEDTATYTCARGIYFSRRYVDPGIYGTWGQGTQVTVSS: 1.95

a. IL6RPMP103C3 (VHH) VHH: EVQLVESGGGLVQPGGSMRLSCAATGAIFSISTMGWYRQAPGAQREFVAGVGLDGTPNYADSVKGRFTISRDNTKNTVSLQMENLKPEDTGVYYCNIDEGMDYDGNFYDRWGQGTQVTVSS
b. IL6RPMP108C9 (VHH) VHH: EVQLVESGGGLVQAGGSLRLSCAASGRTYAMAWFRQAPGKEREFVAAISIVTDYADSVKGRFNISRDNRENTVYLQMNSLKPEDTAVYYCAANTYYSGAYFPRGHEWYEYWGQGTQVTVSS
Short answer wanted: higher OD450 ratio sample/blank, a or b ? Answer by stating the label of the chosen item.
a
(a: 2.02, b: 0.911)

The values you see were collected from patent US10618964B2.
